FYI, the data here is from patent US20260207602A1.

Form field: pIC50 (one value per entry).
Molecular target: intracellular phosphorylation of EGFR (Tyr1068) in PC-9 cells (Homo sapiens, UniProt P00533, DEL746-750)
Sequence (P00533 with tags, fused parts or gaps DEL746-750): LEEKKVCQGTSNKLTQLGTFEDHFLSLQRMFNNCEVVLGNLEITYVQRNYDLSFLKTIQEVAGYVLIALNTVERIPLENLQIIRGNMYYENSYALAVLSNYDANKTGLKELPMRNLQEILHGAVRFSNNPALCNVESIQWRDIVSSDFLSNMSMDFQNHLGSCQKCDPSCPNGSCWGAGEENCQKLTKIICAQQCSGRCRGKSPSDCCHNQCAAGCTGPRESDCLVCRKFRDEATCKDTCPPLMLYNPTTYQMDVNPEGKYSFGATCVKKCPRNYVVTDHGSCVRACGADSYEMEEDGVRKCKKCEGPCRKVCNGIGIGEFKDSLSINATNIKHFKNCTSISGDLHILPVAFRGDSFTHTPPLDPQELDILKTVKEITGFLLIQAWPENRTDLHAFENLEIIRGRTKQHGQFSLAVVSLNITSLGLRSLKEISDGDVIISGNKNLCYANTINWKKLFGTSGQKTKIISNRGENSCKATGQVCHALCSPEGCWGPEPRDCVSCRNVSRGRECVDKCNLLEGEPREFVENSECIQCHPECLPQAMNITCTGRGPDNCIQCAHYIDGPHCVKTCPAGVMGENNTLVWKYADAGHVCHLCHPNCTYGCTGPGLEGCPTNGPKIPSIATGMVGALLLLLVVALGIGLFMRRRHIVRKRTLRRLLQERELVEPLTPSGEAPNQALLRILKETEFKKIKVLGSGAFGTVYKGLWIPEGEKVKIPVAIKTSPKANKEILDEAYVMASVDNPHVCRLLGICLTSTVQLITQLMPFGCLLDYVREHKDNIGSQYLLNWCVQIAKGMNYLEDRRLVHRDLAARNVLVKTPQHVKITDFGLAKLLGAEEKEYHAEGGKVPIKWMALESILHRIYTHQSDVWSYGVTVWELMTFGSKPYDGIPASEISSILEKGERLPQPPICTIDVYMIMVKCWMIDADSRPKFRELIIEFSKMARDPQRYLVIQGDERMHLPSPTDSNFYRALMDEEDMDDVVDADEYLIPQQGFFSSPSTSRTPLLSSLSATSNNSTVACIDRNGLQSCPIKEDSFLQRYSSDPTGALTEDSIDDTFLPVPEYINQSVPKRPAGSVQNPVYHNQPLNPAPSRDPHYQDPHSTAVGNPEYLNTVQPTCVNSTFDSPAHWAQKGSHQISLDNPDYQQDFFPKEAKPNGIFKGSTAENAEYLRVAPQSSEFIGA
Test: PC-9 pEGFR AlphaLISA assay
Details: 4 hours incubation, read-out: Phos EGFR PC9 IC50
pIC50: −log10 of the molar value.

Consider the reported pIC50 for these molecules:
C[C@@H]1OC[C@H]1Oc1cc(-c2cnn(C)c2)cc2ncnc(Nc3ccc4ncsc4c3)c12 (racemic)    7.30 to 8.00
CN1CC[C@H](Oc2cc(-c3cn(C)nc3OC(F)F)cc3ncnc(Nc4ccc5ncsc5c4)c23)[C@@H](F)C1 (single isomer, unassigned) [Example 369]    7.30 to 8.00
Cn1cc(-c2cc(OC(C)(C)C(=O)N3CCOCC3)c3c(Nc4ccc5ncsc5c4)ncnc3c2)cn1    7.30 to 8.00
C[C@@H](Oc1cc(-c2cn(C)n(C(F)F)c2=O)cc2ncnc(Nc3ccc4ncsc4c3)c12)C1COC1 (single isomer, unassigned) [Example 174]    ≥ 8.00
CC(C)N1CCN(c2cc(OC3CCOCC3)c3c(Nc4ccc5ncsc5c4)ncnc3c2)C1=O    ≥ 8.00
Cn1cc(-c2cc3ncnc(Nc4ccc5ncsc5c4F)c3cc2OC2CCOC2)cn1 (stereo not shown)    ≥ 8.00

Could you now consider this next molecule?
QUERY: pIC50 lookup needed for Cn1cc(-c2cc(OC3CCOCC3)c3c(Nc4ccc5ncsc5c4)ncnc3c2)cn1 , thanks.
RESULT: ≥ 8.00
